Hi there, I'd appreciate the recorded MIC for every entry that follows.
# Test system: Staphylococcus aureus SA1199B
# Assay type: cell-based
Answers are plain numbers, in µg/mL.

List MIC for every entry below, keeping the order given.
1. COc1ccc2nc(-c3ccccc3)cc(CNC3(C)CC(OC4C(Oc5c6cc7cc5Oc5ccc(cc5Cl)C(OC5CC(C)(N)C(O)C(C)O5)C5NC(=O)C(NC(=O)C7NC(=O)C(CC(N)=O)NC(=O)C(NC(=O)C(CC(C)C)N(C)Cc7cc(-c8ccccc8)nc8ccc(OC)cc78)C(O)c7ccc(c(Cl)c7)O6)c6ccc(O)c(c6)-c6c(O)cc(O)cc6C(C(=O)O)NC5=O)OC(CO)C(O)C4O)OC(C)C3O)c2c1 (stereo not drawn) [Compound 277]
2. CC(C)CC(C(=O)NC1C(=O)NC(CC(N)=O)C(=O)NC2C(=O)NC3C(=O)NC(C(=O)NC(C(=O)O)c4cc(O)cc(O)c4-c4cc3ccc4O)C(OC3CC(C)(N)C(O)C(C)O3)c3ccc(c(Cl)c3)Oc3cc2cc(c3OC2OC(CO)C(O)C(O)C2OC2CC(C)(NCc3ccc(Oc4ccccc4)cc3)C(O)C(C)O2)Oc2ccc(cc2Cl)C1O)N(C)Cc1ccc(Oc2ccccc2)cc1 (stereo not drawn) [Compound 247]
3. CNC(CC(C)C)C(=O)NC1C(=O)NC(CC(N)=O)C(=O)NC2C(=O)NC3C(=O)NC(C(=O)NC(C(=O)O)c4cc(O)cc(O)c4-c4cc3ccc4O)C(OC3CC(C)(N)C(O)C(C)O3)c3ccc(c(Cl)c3)Oc3cc2cc(c3OC2OC(CO)C(O)C(O)C2OC2CC(C)(NCc3ccc(-c4ccc(OC)c(OC)c4)cc3)C(O)C(C)O2)Oc2ccc(cc2Cl)C1O (stereo not drawn) [Compound 215]
4. CNC(CC(C)C)C(=O)NC1C(=O)NC(CC(N)=O)C(=O)NC2C(=O)NC3C(=O)NC(C(=O)NC(C(=O)O)c4cc(O)cc(O)c4-c4cc3ccc4O)C(OC3CC(C)(N)C(O)C(C)O3)c3ccc(c(Cl)c3)Oc3cc2cc(c3OC2OC(CO)C(O)C(O)C2OC2CC(C)(NCc3ccc(OCCOC(C)(C)C)cc3)C(O)C(C)O2)Oc2ccc(cc2Cl)C1O (stereo not drawn) [Compound 154]
5. CCOc1cc(CNC2(C)CC(OC3C(Oc4c5cc6cc4Oc4ccc(cc4Cl)C(OC4CC(C)(N)C(O)C(C)O4)C4NC(=O)C(NC(=O)C6NC(=O)C(CC(N)=O)NC(=O)C(NC(=O)C(CC(C)C)NC)C(O)c6ccc(c(Cl)c6)O5)c5ccc(O)c(c5)-c5c(O)cc(O)cc5C(C(=O)O)NC4=O)OC(CO)C(O)C3O)OC(C)C2O)ccc1OCC1CCCCC1 (stereo not drawn) [Compound 105]

Return:
16
0.5
1
0.25
0.5

====

# System: vancomycin-resistant enterococci
# EXPERIMENT DESCRIPTION: broth micro-dilution, mean geometric MIC
# Type: cell-based, Enterococcus faecium and Enterococcus faecalis
# PROTOCOL CONDITIONS: enterococci, 24-hour incubation
QUANTITY: mean geometric MIC, Vancomycin Resistant Strains
Respond with the figure and its unit, in that order.

Below, 2 compounds whose answers are already recorded.
Enquiry: What value of mean geometric MIC, Vancomycin Resistant Strains has been recorded for this entry: CNC(CC(C)C)C(=O)NC1C(=O)NC(CC(N)=O)C(=O)NC2C(=O)NC3C(=O)NC(C(=O)NC(C(=O)O)c4cc(O)cc(O)c4-c4cc3ccc4O)C(OC3CC(C)(N)C(O)C(C)O3)c3ccc(c(Cl)c3)Oc3cc2cc(c3OC2OC(CO)C(O)C(O)C2OC2CC(C)(NCc3ccc(-c4ccccc4)cc3)C(O)C(C)O2)Oc2ccc(cc2Cl)C1O (stereo not drawn) [Compound 2, p-phenylbenzyl·A82846B]
Return: 0.044 µg/mL

Enquiry: Could you do the same for CNC(CC(C)C)C(=O)NC1C(=O)NC(CC(N)=O)C(=O)NC2C(=O)NC3C(=O)NC(C(=O)NC(C(=O)O)c4cc(O)cc(O)c4-c4cc3ccc4O)C(OC3CC(C)(NCc4ccc(OCCOC(C)(C)C)cc4)C(O)C(C)O3)c3ccc(c(Cl)c3)Oc3cc2cc(c3OC2OC(CO)C(O)C(O)C2OC2CC(C)(NCc3ccc(OCCOC(C)(C)C)cc3)C(O)C(C)O2)Oc2ccc(cc2Cl)C1O (stereo not drawn) , please?
Return: 11 µg/mL

Next compound, mean geometric MIC, Vancomycin Resistant Strains to be filled in.
Enquiry: What value of mean geometric MIC, Vancomycin Resistant Strains has been recorded for this entry: C=CCCCCCCCCNC1(C)CC(OC2C(Oc3c4cc5cc3Oc3ccc(cc3Cl)C(OC3CC(C)(N)C(O)C(C)O3)C3NC(=O)C(NC(=O)C5NC(=O)C(CC(N)=O)NC(=O)C(NC(=O)C(CC(C)C)NC)C(O)c5ccc(c(Cl)c5)O4)c4ccc(O)c(c4)-c4c(O)cc(O)cc4C(C(=O)O)NC3=O)OC(CO)C(O)C2O)OC(C)C1O (stereo not drawn)
Return: 0.71 µg/mL
